# tgt: Glutamate NMDA receptor; GRIN1/GRIN2A (Homo sapiens, UniProt Q05586+Q12879)
# Sequence (Q12879 whole entry, other chains not shown): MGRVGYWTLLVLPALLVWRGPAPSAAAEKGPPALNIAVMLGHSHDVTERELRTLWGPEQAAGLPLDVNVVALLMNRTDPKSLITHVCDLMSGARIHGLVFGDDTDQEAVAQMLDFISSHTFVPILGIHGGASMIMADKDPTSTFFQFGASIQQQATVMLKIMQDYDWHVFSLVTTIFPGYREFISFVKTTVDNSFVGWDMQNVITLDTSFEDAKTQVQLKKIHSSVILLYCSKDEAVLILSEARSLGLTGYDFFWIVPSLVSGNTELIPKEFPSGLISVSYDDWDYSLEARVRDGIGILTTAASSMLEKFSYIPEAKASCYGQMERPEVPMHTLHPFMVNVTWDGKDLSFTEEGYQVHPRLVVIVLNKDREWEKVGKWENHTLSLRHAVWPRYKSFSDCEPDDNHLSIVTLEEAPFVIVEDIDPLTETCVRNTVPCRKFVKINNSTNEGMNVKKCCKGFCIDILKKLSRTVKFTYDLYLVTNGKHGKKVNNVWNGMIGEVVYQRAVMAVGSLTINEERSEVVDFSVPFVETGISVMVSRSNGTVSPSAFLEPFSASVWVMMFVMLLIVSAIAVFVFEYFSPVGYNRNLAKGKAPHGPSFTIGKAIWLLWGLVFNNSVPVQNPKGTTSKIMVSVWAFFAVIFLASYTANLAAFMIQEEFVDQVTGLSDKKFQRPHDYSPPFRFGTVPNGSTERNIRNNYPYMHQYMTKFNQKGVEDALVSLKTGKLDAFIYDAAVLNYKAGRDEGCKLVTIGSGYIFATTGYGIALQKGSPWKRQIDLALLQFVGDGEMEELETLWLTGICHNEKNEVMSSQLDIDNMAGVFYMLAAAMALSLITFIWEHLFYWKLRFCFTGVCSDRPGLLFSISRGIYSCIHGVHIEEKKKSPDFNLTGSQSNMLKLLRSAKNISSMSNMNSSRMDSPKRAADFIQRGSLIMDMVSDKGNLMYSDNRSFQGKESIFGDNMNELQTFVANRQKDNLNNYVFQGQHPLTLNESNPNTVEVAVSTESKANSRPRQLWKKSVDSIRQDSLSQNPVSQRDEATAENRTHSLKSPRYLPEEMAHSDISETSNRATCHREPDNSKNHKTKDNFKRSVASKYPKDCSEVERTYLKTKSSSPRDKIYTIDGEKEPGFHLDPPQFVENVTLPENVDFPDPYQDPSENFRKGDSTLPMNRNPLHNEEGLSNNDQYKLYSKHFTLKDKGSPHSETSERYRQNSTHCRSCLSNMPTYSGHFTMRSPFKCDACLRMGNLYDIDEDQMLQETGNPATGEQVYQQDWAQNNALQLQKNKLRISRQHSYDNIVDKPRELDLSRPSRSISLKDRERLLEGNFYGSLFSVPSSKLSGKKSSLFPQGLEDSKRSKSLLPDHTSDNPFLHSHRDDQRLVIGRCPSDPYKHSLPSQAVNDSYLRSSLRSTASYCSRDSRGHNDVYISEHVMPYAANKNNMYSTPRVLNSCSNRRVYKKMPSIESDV
# test_method_notes: Inhibition of human GluN1/GluN2A NMDA receptor expressed in HEK293 cells assessed as reduction in glutamate induced current at -70 mV holding potential by whole-cell patch clamp technique
# Assay type: cell-based
metric: IC50 (nM)

>>> endpoint_value("CN1CC[C@@]23CCCC[C@@H]2[C@@H]1Cc1ccc(C(=O)NC2CC2)cc13")
9230
>>> endpoint_value("CCN1CC[C@@]23CCCC[C@@H]2[C@@H]1Cc1ccc(O)cc13")
280
>>> endpoint_value("CN1CC[C@@]23CCCC[C@@H]2[C@@H]1Cc1ccc(NC(=O)c2ccccc2)cc13")
2200
>>> endpoint_value("CCc1ccc2c(c1)[C@]13CCCC[C@@H]1[C@H](C2)N(CC)CC3")
9870
>>> endpoint_value("CNC(=O)c1ccc2c(c1)[C@]13CCCC[C@@H]1[C@H](C2)N(C)CC3")
19900
>>> endpoint_value("CCOc1ccc2c(c1)[C@]13CCCC[C@@H]1[C@H](C2)N(CC)CC3")
1300
>>> endpoint_value("CN1CC[C@@]23CCCC[C@@H]2[C@@H]1Cc1ccc(C(N)=O)cc13")
3010
>>> endpoint_value("CCOc1ccc2c(c1)[C@]13CCCC[C@@H]1[C@H](C2)NCC3")
340
>>> endpoint_value("Cc1ccc2c(c1)[C@]13CCCC[C@@H]1[C@H](C2)N(C)CC3")
2960
>>> endpoint_value("CCOc1ccc2c(c1)[C@]13CCCC[C@@H]1[C@H](C2)N(C)CC3")
1810
>>> endpoint_value("CCc1ccc2c(c1)[C@]13CCCC[C@@H]1[C@H](C2)NCC3")
500
>>> endpoint_value("CN1CC[C@@]23CCCC[C@@H]2[C@@H]1Cc1ccccc13")
2960
>>> endpoint_value("CC(=O)Nc1ccc2c(c1)[C@]13CCCC[C@@H]1[C@H](C2)N(C)CC3")
2170
>>> endpoint_value("COC(=O)c1ccc2c(c1)[C@]13CCCC[C@@H]1[C@H](C2)N(C)CC3")
4770
>>> endpoint_value("CN1CC[C@@]23CCCC[C@@H]2[C@@H]1Cc1ccc(NC=O)cc13")
3070
>>> endpoint_value("CCc1ccc2c(c1)[C@]13CCCC[C@@H]1[C@H](C2)N(C)CC3")
5180
>>> endpoint_value("Cc1ccc2c(c1)[C@]13CCCC[C@@H]1[C@H](C2)NCC3")
280
>>> endpoint_value("CN1CC[C@@]23CCCC[C@@H]2[C@@H]1Cc1ccc(O)cc13")
280
>>> endpoint_value("COc1ccc2c(c1)[C@]13CCCC[C@@H]1[C@H](C2)NCC3")
300
>>> endpoint_value("CCN1CC[C@@]23CCCC[C@@H]2[C@@H]1Cc1ccccc13")
4920
>>> endpoint_value("CNc1ccc2c(c1)[C@]13CCCC[C@@H]1[C@H](C2)N(C)CC3")
6230

---

// reported Tmax per item
# test_method_notes: Tmax in ICR mouse at 10 mg/kg, po measured upto 24 hrs by LC-MS/MS analysis
# Type: ADME, organism-based
# experimental_conditions: in vivo
metric: Tmax (min)

>>> endpoint_value("COc1ccc2c(c1)[C@]13CCCC[C@@H]1[C@H](C2)N(C)CC3")
49.8
>>> endpoint_value("CC(=O)Nc1ccc2c(c1)[C@]13CCCC[C@@H]1[C@H](C2)N(C)CC3")
11.4
>>> endpoint_value("CN1CC[C@@]23CCCC[C@@H]2[C@@H]1Cc1ccc(N)cc13")
25.2
